Where these numbers come from: PubChem BioAssay (NCI)

# TGI per entry
System: LOX IMVI melanoma
protocolSummary: NCI tumour cell line growth inhibition, 48 h

compound	measuredTarget	TGI
Cc1cc(-c2ccc(N=Nc3ccc4c(S(=O)(=O)O)cc(S(=O)(=O)O)c(N)c4c3O)c(C)c2)ccc1N=Nc1ccc2c(S(=O)(=O)O)cc(S(=O)(=O)O)c(N)c2c1O	LOX IMVI melanoma	> 100 µM
O=C(N/N=C/c1ccccc1)c1c(F)c(F)c(F)c(F)c1F	LOX IMVI melanoma	> 100 µM
O=C(Nc1nc(=S)[nH][nH]1)C(=O)C(c1cnc2ccc([N+](=O)[O-])cc2n1)[N+](=O)[O-] (stereo not given)	LOX IMVI melanoma	> 100 µM
CN(C)C1C(=O)C(C(N)=O)=C(O)C2(O)C(=O)C3=C(O)c4c(O)cccc4C(C)(O)C3CC12.[Cl][Sb]([Cl])[Cl] (stereo not given)	LOX IMVI melanoma	12.3 µM
Cc1nc2sccn2c1C(=O)NNC(N)=S	LOX IMVI melanoma	> 100 µM
Nc1c(C(=O)O)c2ccc([N+](=O)[O-])cc2c(=O)n1-c1nc2ccccc2s1	LOX IMVI melanoma	> 100 µM
Cc1ccc(S(=O)(=O)N/N=c2/sc3ccccc3n2C)cc1	LOX IMVI melanoma	> 100 µM
CN(C)c1cccc2c(S(=O)(=O)NCCN)cccc12	LOX IMVI melanoma	> 100 µM
COc1ccc(S(=O)(=O)NC(CCC(=O)NC(N)=O)C(=O)NC(N)=O)cc1 (stereo not given)	LOX IMVI melanoma	> 100 µM
CO[C@H]1C(=O)[C@]2(C)[C@@H](OC)C[C@H]3OC[C@@]3(OC(C)=O)[C@H]2[C@H](OC(=O)c2ccccc2)[C@]2(O)C[C@H](OC(=O)[C@H](O)[C@@H](NC(=O)OC(C)(C)C)c3ccccc3)C(C)=C1C2(C)C	LOX IMVI melanoma	49.7 µM
CCCC(O)[C@@]1(CC)CC(C)C(O)(C2(C)C[C@H](C)[C@@H](C(CC)C(=O)C(C)[C@@H](O)[C@H](C)C3OC(O)(C(CC)C(=O)O)[C@@H](C)C(O)C3CC)O2)O1 (stereo not given in full)	LOX IMVI melanoma	1.57 µM
CC(=O)C1(C(=O)C(=[N+]=[N-])S(=O)(=O)c2ccccc2)CC1	LOX IMVI melanoma	> 100 µM
CN(Cc1cnc2nc(N)nc(N)c2n1)c1ccc(C(=O)NC(CCC(=O)O)C(=O)O)c2ccccc12 (stereo not given)	LOX IMVI melanoma	> 1000 µM
OCCNc1nc2ccccc2c2[nH]c3ccccc3c12	LOX IMVI melanoma	1.8 µM
Cc1ccc(C(=O)Nc2ccc(Oc3cc4cnn(C)c4cc3-c3cn[nH]c3)c(F)c2)c(=O)n1-c1ccc(F)cc1	LOX IMVI melanoma	> 100 µM
CC1(C)CCC[C@@]2(C)C1CC[C@@]1(CO)O[C@H](C3=CC(=O)OC3O)C[C@H]12 (stereo not given in full)	LOX IMVI melanoma	3.42 µM
Cc1ccccc1Nc1cc(O)c2c(=O)cc(-c3ccccc3)oc2c1	LOX IMVI melanoma	> 100 µM
CCCCCCCCCC1CC(=O)OC23CCCC(=O)C12O3 (stereo not given)	LOX IMVI melanoma	> 100 µM
CN1CCCc2nc3ccccc3n2C1	LOX IMVI melanoma	> 100 µM
C/C(=C/CCC(C)[C@@H]1CC[C@]2(C)C3=C(CC[C@@]12C)[C@@]1(C)CCC(=O)C(C)(C)[C@@H]1CC3)C(=O)O (stereo not given in full)	LOX IMVI melanoma	2.49 µM

====

Tested on: NCI-H522 lung
protocolSummary: NCI tumour cell line growth inhibition, 48 h
Below, each of the compounds is paired with its reported TGI value.

compound	unitString	comparisonSymbol	TGI
COc1cccc2c(=O)oc(-c3ccccc3C)nc12	µM	>	100
CCCCCCCCCCCCCCCCNc1nc(=O)n(C2OC(C)C(O)C2O)cc1F (stereo not given)	µM	=	39
CCOC(=O)[C@@H](C)C[C@H](Cc1ccccc1)NC(=O)c1csc([C@@H](C[C@H](C(C)C)N(C)C(=O)CNC(=O)[C@H]2CCCCN2C)OC(C)=O)n1	µM	>	3.79
N#CN1CC[C@H](C(=O)Nc2ncc(-c3ccccc3)s2)C1	µM	=	0.547
CC(C)CNP(=O)(NCC(C)C)Oc1ccc(CC(NC(=O)OCc2ccccc2)C(=O)OCc2ccccc2)cc1 (stereo not given)	µM	=	30.5
N=C(N)n1cc(/C=N/N=C(N)N)cn1	µM	>	100
Cc1ccc(C(=O)Nc2ccc(Oc3cc4cnn(C)c4cc3-c3cn[nH]c3)c(F)c2)c(=O)n1-c1ccc(F)cc1	µM	>	100
CCOC(=O)c1cc(C(=O)c2ccc(OC)c(OC)c2)n2c1ccc1ccc3cccnc3c12	µM	>	100
NC(=O)c1nc(-c2c(F)cccc2Cl)oc1Nc1ccc(C(=O)N2CCOCC2)cc1	µM	=	57.1
O=S(Nc1ccccc1)c1ccc(Cl)cc1 (stereo not given)	µM	>	100

====

Test system: A498 renal
protocolSummary: NCI tumour cell line growth inhibition, 48 h
propertyLabel: TGI

compound	measurement
CC1CCCP(=O)(c2ccccc2)CCC1 (stereo not given)	> 100 µM
CC1CC(c2ccccc2)=Nc2ccccc2S1 (stereo not given)	> 100 µM
C=CCOC(C)(C)C1=CCC(C)CC1 (stereo not given)	> 100 µM
Cc1cc(OC2OC(CO)C(O)C(O)C2O)ccc1O (stereo not given)	> 100 µM
Nc1nc(Cl)c2ncn(Cc3ccc(C45CC6CC(CC(C6)C4)C5)c(OCc4cc(F)c(F)cc4F)c3)c2n1	22.8 µM
Cc1ccc(-n2nc(C(OC3OC(CO)C(O)C(O)C3O)C(O)CO)c3nc4cc(C)c(C)cc4nc32)cc1 (stereo not given)	> 100 µM
[C-]#[O+].[Cl][Sn]([Cl])[Cl].[Cl][Sn]([Cl])[Cl].[Pt].c1cnc2c(c1)ccc1cccnc12	13.3 µM
C[C@]12CCc3nc(Nc4ccc(O)cc4)sc3C1=CC[C@@H]1[C@@H]2CC[C@]2(C)/C(=N/NC(N)=S)CC[C@@H]12	4.9 µM
CCOC(=O)C[C@@]12CCCN[C@]1(C)CCc1ccccc12	> 100 µM
CCOC1c2nc3ccccc3nc2-c2ccccc2N1C(C)=O (stereo not given)	> 100 µM

====

Listed next: entries and their corresponding TGI.
Test system: SF-539 CNS
protocolSummary: NCI tumour cell line growth inhibition, 48 h
propertyLabel: TGI

compound	measuredTarget	measurement
C/C(CCN(C)C)=N/O	SF-539 CNS	1.89 µM
CCN(CC)CCCC(Nc1c2ccc(Cl)cc2nc2ccc(OC)cc12)c1ccc(Cl)cc1 (stereo unspecified)	SF-539 CNS	3.1 µM
Cc1ccc(C(=O)Nc2ccc(Oc3cc4cnn(C)c4cc3-c3cn[nH]c3)c(F)c2)c(=O)n1-c1ccc(F)cc1	SF-539 CNS	> 100 µM
Cc1ccc2ccc3c4ccccc4ccc3c2c1	SF-539 CNS	> 100 µM
O=C1Nc2ccc(-c3cccnc3)cc2/C1=C/c1cc(Br)c(O)c(Br)c1	SF-539 CNS	> 22.4 µM
NC(=O)c1nc(-c2c(F)cccc2Cl)oc1Nc1ccc(C(=O)N2CCOCC2)cc1	SF-539 CNS	5.16 µM
BrC1(c2ccccc2)C[n+]2c(-c3ccccc3)cc(-c3ccccc3)cc2-c2ccccc21 (stereo unspecified)	SF-539 CNS	11.4 µM
C[n+]1cn(CC(=O)c2ccccc2)c(C(N)=O)c1N	SF-539 CNS	> 100 µM
CC(C)Oc1cccc(N2C(CCc3c[nH]c4ccc(Br)cc34)=NS(=O)(=O)c3cnccc32)c1	SF-539 CNS	> 100 µM
CC(C)OC(=O)C(NC(=O)C(CC(=O)OCc1ccccc1)NC(=O)OCc1ccccc1)NC(=O)C1C(C)(C)CCC1(C)C (stereo unspecified)	SF-539 CNS	13.1 µM
CN(C)c1cccc2c(S(=O)(=O)NCCN)cccc12	SF-539 CNS	> 100 µM
CC(C)(C)C1=NO[C@H]2[C@@H](NC(=O)c3ccccc3)CC[C@@H]12	SF-539 CNS	> 100 µM
COc1cc(C2c3cc4c(cc3[C@@H](Nc3ccc(F)cc3)C3COC[C@H]23)OCO4)cc(OC)c1O (stereo partly specified)	SF-539 CNS	3.49 µM
CN1CCCc2nc3ccccc3n2C1	SF-539 CNS	> 100 µM
O=[N+]([O-])/C=C/c1ccc2ccccc2c1	SF-539 CNS	> 100 µM
C/C(=N\NC(=S)NC(C)(C)C)c1nc2ncccc2[nH]1	SF-539 CNS	13.6 µM
CCOC(=O)C(Cc1ccc(N=NN(C)C)cc1)NC(=O)CC1c2ccccc2-c2ccccc21 (stereo unspecified)	SF-539 CNS	> 100 µM
CC(=O)c1c(-c2ccc(Cl)cc2)c(C#N)c(=S)n(C2OC(CO)C(O)C(O)C2O)c1C (stereo unspecified)	SF-539 CNS	> 100 µM
COc1cc([C@@H]2c3cc4c(cc3[C@H](SC(=N)N)[C@H]3COC(=O)[C@H]23)OCO4)cc(OC)c1OC	SF-539 CNS	> 100 µM
O=C(O)CCCc1ccc2c(c1)C(C(=O)O)CC2 (stereo unspecified)	SF-539 CNS	> 100 µM
CC(C)c1ccc(Cc2ccc(C(C)C)c(NC(=O)C(=O)Cc3cnc4ccccc4n3)c2C(C)C)c(C(C)C)c1NC(=O)C(=O)Cc1cnc2ccccc2n1	SF-539 CNS	> 100 µM
